Recorded Potency for the following molecules
method notes: qHTS drug screen for cell cycle checkpoint inhibitors in PARPi-resistant BRCA-mutant ovarian cancer cell lines. (AID 1963452); also: potency is read from the fitted curve at half-maximal effect
measurement setup: PEO1/OlaR viability, CellTiter-Glo luminescence, 96 h
Active and inactive are the calls of the source. Calls follow the shape of the full dose curve.

Some molecules with known Potency results, for comparison:
Value of Potency reported for the molecule `COc1cc([C@@H]2c3cc4c(cc3[C@@H](O[C@@H]3O[C@@H]5CO[C@@H](c6cccs6)O[C@H]5[C@H](O)[C@H]3O)[C@H]3COC(=O)[C@H]23)OCO4)cc(OC)c1O` is 87.1 nM (active)

Value of Potency reported for the molecule `COc1cccc2c1C(=O)c1c(O)c3c(c(O)c1C2=O)C[C@@](O)(/C(CO)=N/NC(=O)CCCCCN1C(=O)C=CC1=O)C[C@@H]3O[C@H]1C[C@H](N)[C@H](O)[C@H](C)O1` is 1100 nM (active)

Turning now to a further record.
Value of Potency reported for the molecule `COc1cc2c3c(n(CCCn4ccnc4)c(=O)c2cc1OC)-c1cc2c(cc1C3=O)OCO2` is 7.8 nM (active)
